- System: COLO 205 colon
- Test summary: NCI-60 one-dose screen, 48 h (100 = growth as untreated, 0 = no growth, -100 = all killed)
- Condition parameters: 10 µM unless noted
About 83,000 compounds went through this panel and 20% of them were active in at least one assay; those are over-represented in the sample as a whole.
Quantity name: growth (%)
Field format: number, assumed %, no unit text.

Quick one: growth for COc1cc(/C=C/C(=O)c2c(C)n([O-])c3ccccc3[n+]2=O)cc(OC)c1OC ? 55.9

Quick one: growth for Cc1cn(C(C=O)OC(C=O)CO)c(=O)[nH]c1=O (centres undefined) ? 109

Quick one: growth for CCOC1Oc2ccccc2C(=O)/C1=N/c1nccs1 (centres undefined) ? 95.1

Quick one: growth for CC1Cc2ccccc2N1C(=O)c1ccc(C(=O)c2ccccc2)cc1 (centres undefined) ? 97.1

Quick one: growth for N#Cc1c(-c2ccccc2)cc(-c2ccccc2)n(CCCCCCC(=O)O)c1=O ? 111

Quick one: growth for Cc1ccc(C2=Nc3c(ccc4c(C)c(C)c(=O)oc34)OC2)cc1 ? 111

Quick one: growth for O=C(c1ccccc1)c1ccc(Oc2ccc([N+](=O)[O-])cc2[N+](=O)[O-])cc1 ? 84

Quick one: growth for O=C(NC1CCCCC1)c1ccc(Nc2ncnc3c2cnn3-c2ccccc2)cc1 ? 65.4

Quick one: growth for COc1ccc(C2=NN(C(N)=S)C(c3ccc4c(c3)OCO4)C2)cc1 (centres undefined) ? 56.5
